# experimental target: human ether-à-go-go-related gene (hERG) potassium channel (human);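 further: peak tail current of the secondary pulse compared with the same well before compound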
# Sequence (Q12809 whole entry, looked up): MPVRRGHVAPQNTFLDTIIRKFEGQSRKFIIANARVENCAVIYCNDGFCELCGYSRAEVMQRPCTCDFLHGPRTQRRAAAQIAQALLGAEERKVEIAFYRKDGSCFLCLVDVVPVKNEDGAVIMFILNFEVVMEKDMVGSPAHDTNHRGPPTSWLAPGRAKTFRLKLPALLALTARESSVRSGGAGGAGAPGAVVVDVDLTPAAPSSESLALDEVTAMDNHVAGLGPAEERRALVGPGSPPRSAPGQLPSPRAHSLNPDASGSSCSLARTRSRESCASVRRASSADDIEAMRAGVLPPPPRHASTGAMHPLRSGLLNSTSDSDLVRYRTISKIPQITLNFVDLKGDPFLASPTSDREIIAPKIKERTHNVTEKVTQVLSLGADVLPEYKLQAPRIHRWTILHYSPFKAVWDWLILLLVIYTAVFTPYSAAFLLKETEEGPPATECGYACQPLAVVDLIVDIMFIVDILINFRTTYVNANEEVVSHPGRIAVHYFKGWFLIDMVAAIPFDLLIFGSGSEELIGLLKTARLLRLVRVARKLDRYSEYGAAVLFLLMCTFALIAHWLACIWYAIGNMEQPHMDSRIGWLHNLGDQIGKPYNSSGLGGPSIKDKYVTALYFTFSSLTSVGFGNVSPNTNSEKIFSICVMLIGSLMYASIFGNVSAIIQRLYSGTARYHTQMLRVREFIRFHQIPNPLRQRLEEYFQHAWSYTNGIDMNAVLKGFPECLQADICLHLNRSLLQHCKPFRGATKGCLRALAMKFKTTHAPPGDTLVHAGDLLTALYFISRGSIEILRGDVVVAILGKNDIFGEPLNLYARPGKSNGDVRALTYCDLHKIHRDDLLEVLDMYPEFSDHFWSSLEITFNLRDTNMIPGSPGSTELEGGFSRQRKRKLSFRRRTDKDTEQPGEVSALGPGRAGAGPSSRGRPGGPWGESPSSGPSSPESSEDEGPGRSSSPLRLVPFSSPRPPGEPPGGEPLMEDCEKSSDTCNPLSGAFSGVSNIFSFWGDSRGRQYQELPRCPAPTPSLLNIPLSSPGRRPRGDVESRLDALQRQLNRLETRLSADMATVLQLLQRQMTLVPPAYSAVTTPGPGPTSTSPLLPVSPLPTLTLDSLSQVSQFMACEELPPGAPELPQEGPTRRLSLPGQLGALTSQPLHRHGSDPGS
# assay text: primary screen, population patch clamp on CHO cells stably expressing hERG; higher = less effect of the substance
In all, about 310,000 compounds went through this assay and about 14,000 (4.5%) showed an effect of 50% or more. The effect is printed as a negative number. The list comes from a sample in which strong results are over-represented; it also holds close analogues and randomly drawn compounds.
readout name: hERG current change (%, negative = inhibition) at 10uM
Remember to put the unit after the number in your answer.

State the recorded hERG current change (%, negative = inhibition) at 10uM for this entry: Cc1cc(C)n2c(Br)c(CN3CC4CC(C3)c3cccc(=O)n3C4)nc2n1 (stereo not drawn)
0.651%

// returns reported hERG current change (%, negative = inhibition) at 10uM for input "O=C(CN(C(=O)c1ccccc1Cl)N1C(=O)CCCC1=O)c1ccc(Cl)cc1"
7.29%

# lookup: hERG current change (%, negative = inhibition) at 10uM of "Cc1cccc(N2CCN(Cc3nc(-c4ccc(F)cc4F)oc3C)CC2)n1"
-41.3%

hERG current change (%, negative = inhibition) at 10uM for "Cc1ccc(NS(=O)(=O)c2cccc(C(=O)O)c2)cc1S(=O)(=O)N1CCCCC1" ?
3.3%

Please look up its hERG current change (%, negative = inhibition) at 10uM: "CCn1c(C(=O)N2CCC(C(=O)NCc3ccc(OC)cc3)CC2)cc2sccc21"
-41.9%

Query: hERG current change (%, negative = inhibition) at 10uM; subject: "Cc1ccc(C(=O)CN(C(=O)c2ccc(Cl)cc2)N2C(=O)CCC2=O)cc1"
-50.7%

Tell me the measured hERG current change (%, negative = inhibition) at 10uM of "Cc1oc(-c2ccc(F)cc2F)nc1CN1C[C@@H]2C[C@@H](C1)c1cccc(=O)n1C2" , please.
-74.4%

Find the recorded hERG current change (%, negative = inhibition) at 10uM belonging to COc1ccc(CN2CC3CC(C2)c2cccc(=O)n2C3)cc1OC (stereo not drawn) and report it.
-5.24%

Endpoint output: hERG current change (%, negative = inhibition) at 10uM of COc1cc(CN2CC3CC(C2)c2cccc(=O)n2C3)cc(OC)c1OC (stereo not drawn) . Value?
-6.41%

Each recorded value in this set is attributed to paper PMC4336329.
